Biological target: human TLR8 (Homo sapiens, UniProt Q9NR97)
Sequence (Q9NR97 27-1041): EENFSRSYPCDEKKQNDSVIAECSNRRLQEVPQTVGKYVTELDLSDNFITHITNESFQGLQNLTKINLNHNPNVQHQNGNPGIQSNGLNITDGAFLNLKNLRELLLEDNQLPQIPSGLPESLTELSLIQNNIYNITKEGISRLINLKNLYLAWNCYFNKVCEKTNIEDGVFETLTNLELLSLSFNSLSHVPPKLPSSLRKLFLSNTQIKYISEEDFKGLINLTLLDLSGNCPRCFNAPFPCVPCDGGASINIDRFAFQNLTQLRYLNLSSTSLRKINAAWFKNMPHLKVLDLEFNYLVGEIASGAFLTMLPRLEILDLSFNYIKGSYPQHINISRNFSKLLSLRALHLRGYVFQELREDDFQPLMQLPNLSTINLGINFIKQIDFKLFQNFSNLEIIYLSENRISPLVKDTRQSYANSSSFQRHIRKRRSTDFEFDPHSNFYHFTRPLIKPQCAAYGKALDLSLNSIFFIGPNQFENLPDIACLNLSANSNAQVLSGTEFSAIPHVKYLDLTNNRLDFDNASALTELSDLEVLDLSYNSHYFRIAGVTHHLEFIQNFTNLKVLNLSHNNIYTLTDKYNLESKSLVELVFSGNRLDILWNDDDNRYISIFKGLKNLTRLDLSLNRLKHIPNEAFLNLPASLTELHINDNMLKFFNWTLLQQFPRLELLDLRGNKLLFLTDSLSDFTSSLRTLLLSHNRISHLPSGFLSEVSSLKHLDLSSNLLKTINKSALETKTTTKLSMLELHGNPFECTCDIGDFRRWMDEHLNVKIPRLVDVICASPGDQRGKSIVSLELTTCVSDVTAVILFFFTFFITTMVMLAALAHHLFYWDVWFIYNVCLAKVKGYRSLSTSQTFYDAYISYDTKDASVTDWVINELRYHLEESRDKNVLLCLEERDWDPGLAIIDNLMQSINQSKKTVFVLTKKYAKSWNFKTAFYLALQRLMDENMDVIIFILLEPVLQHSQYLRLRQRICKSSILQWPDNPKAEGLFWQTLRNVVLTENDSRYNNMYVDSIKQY
Assay: TLR7/8/9 Inhibition Reporter Assays (TLR8)
Conditions: HEK-Blue cells overexpressing human TLR8, SEAP reporter, stimulated with TLR8 ligand R848
Procedure: HEK-Blue™-cells (Invivogen) overexpressing human TLR7, TLR8 or TLR9 receptors were used for screening inhibitors of these receptors using an inducible SEAP (secreted embryonic alkaline phosphatase) reporter gene under the control of the IFN-β minimal promoter fused to five NF-κB and AP-1-binding sites. […] The percent inhibition is determined as the % reduction in the HEK-Blue signal present in wells treated with agonist plus DMSO alone compared to wells treated with a known inhibitor.
measurement-label: IC50 (µM)

These solved cases illustrate the format of a correct answer.
[[record]]
compound_smiles = "COc1ccc(-c2nc3cnc(-c4ccc(N5CCC6(CC5)CN(CC(C)C)C6)cc4)cc3n2C2CC2)cc1OC"
target_desc = "human TLR8 (Homo sapiens, UniProt Q9NR97)"
measured_value = 12

[[record]]
compound_smiles = "COc1ccc(-c2nc3c(C)nc(-c4ccc(N5CCC6(CC5)CN(CC(C)C)C6)cc4)cc3n2C)cc1OC"
target_desc = "human TLR8 (Homo sapiens, UniProt Q9NR97)"
measured_value = 28

[[record]]
compound_smiles = "Cc1nc(-c2ccc(N3CCC4(CC3)CN(C3CCC3)C4)cc2)cc2c1nc(-c1ccc(S(C)(=O)=O)cc1)n2C"
target_desc = "human TLR8 (Homo sapiens, UniProt Q9NR97)"
measured_value = 3.7

[[record]]
compound_smiles = "CC(C)N1CC2(CN(c3ccc(-c4cc5c(cn4)nc(-c4ccc(S(C)(=O)=O)cc4)n5C4CC4)cc3)C2)C1"
target_desc = "human TLR8 (Homo sapiens, UniProt Q9NR97)"
measured_value = 4.5

[[record]]
compound_smiles = "Cc1nc(-c2ccc(CN3CCC(N4CCOCC4)CC3)cc2)cc2c1nc(-c1ccc(S(C)(=O)=O)cc1)n2C"
target_desc = "human TLR8 (Homo sapiens, UniProt Q9NR97)"
measured_value = 9.5


I = COc1ccc(-c2nc3cnc(-c4ccc(N5C[C@@H]6CN(C(C)C)C[C@@H]6C5)cc4)cc3n2C2CC2)cc1OC
II = Cc1nc(-c2ccc(N3CC4(C3)CN(C(C)C)C4)cc2)cc2c1nc(-c1ccc(S(C)(=O)=O)cc1)n2C
III = COc1ccc(-c2nc3cnc(-c4ccc(N5CCC6(CC5)CN(C(C)C)C6)cc4)cc3n2C2CC2)cc1OC
IV = COc1ccc(-c2nc3c(C)nc(-c4ccc(N5CCC6(CC5)CN(C(C)C)C6)cc4)cc3n2C)cc1OC
V = COc1ccc(-c2nc3c(C)nc(-c4ccc(N5C[C@@H]6CN(C7CCC7)C[C@@H]6C5)cc4)cc3n2C)cc1OC
Please list these in order of increasing IC50. Thank you! Please write the labels in the order that was asked for. I, II, III, V, IV
(I: 3.3 µM, II: 6.3 µM, III: 12 µM, V: 20 µM, IV: 37 µM)

A = Cc1nc(-c2ccc(N3CC4(C3)CN(C3CCC3)C4)cc2)cc2c1nc(-c1ccc(S(C)(=O)=O)cc1)n2C
B = COc1ccc(-c2nc3cnc(-c4ccc(N5CC6(CN(CC(C)C)C6)C5)cc4)cc3n2C2CC2)cc1OC
C = Cc1nc(-c2ccc(CN3CCN(C(C)C)CC3)cc2)cc2c1nc(-c1ccc(S(C)(=O)=O)cc1)n2C
D = Cc1nc(-c2ccc(C3CCNCC3)cc2)cc2c1nc(-c1ccc(S(C)(=O)=O)cc1)n2C
Please list these compounds in decreasing order of IC50. Please write the labels in the order that was asked for. D, C, A, B
(D: 46 µM, C: 22 µM, A: 3.7 µM, B: 2.5 µM)

1 = COc1ccc(-c2nc3cnc(-c4ccc(N5C[C@H]6CN(CC(C)C)C[C@H]6C5)cc4)cc3n2C2CC2)cc1OC
2 = Cc1nc(-c2ccc(N3CCN(CCCN4CCOCC4)CC3)cc2)cc2c1nc(-c1ccc(S(C)(=O)=O)cc1)n2C
Of the two listed items, which has the higher IC50? First: 1 Second: 2 Identify your selection by its label. 1
(1: 4.2 µM, 2: 2.6 µM)

a = CC(C)CN1CC2(C1)CN(c1ccc(-c3cc4c(cn3)nc(-c3ccc(S(C)(=O)=O)cc3)n4C3CC3)cc1)C2
b = Cc1cc(-c2nc3c(C)nc(-c4ccc(N5CCN(CC(C)C)CC5)cc4)cc3n2C)cc(C)n1
Among a and b , whose measured IC50 is the smaller figure? Identify your selection by its label. a
(a: 2.9 µM, b: 4.6 µM)

Recorded values, source patent US20250163054A1.
